All figures here come from ChEMBL document CHEMBL2163239.

Test: Cmax in healthy human at 25 mg, po administered with high fat meal
Format: ADME, organism-based
Set-up: dose 25 mg, route oral
Settings: in vivo
assayReadout: Cmax (ng/mL)

> print(dat)
                                smilesentry  quantitativereadout
1  COc1cnc(OC)c2c1c(C(=O)C(=O)N1CCN(C(=O)c3ccccc3)CC1)cn2COP(=O)(O)O.NCCCC[C@H](N)C(=O)O                  784

---

Assay: Half life in beagle dog at 1.2 mg/kg, iv
Type: ADME, organism-based, Canis lupus familiaris
Design: dose 1.2 mg/kg, route intravenous
Details: in vivo
assayReadout: half-life

> print(dat)
                                smilesentry  assayreadout  result
1  COc1cnc(OC)c2c1c(C(=O)C(=O)N1CCN(C(=O)c3ccccc3)CC1)cn2COP(=O)(O)O.NCCCC[C@H](N)C(=O)O     half-life   9 min
